Target: HLA-A*02:06
Experiment: IEDB peptide-MHC binding, purified MHC/competitive/radioactivity; bounds were set here for any values at or beyond the usual limits of such assays
Conditions: source organism: Vaccinia virus WR
Just a reminder that ties go to no (0): only IC50 strictly below 300 nM counts as yes (1).

biosequence: ILDNAAKYV
assigned.category: no (0)
//
biosequence: SIYIAVANCV
assigned.category: no (0)
//
biosequence: FVVNGHTCM
assigned.category: no (0)
//
biosequence: SIAMLKSKNI
assigned.category: yes (1)
//
biosequence: IAGGVCYYL
assigned.category: no (0)
//
biosequence: SIRCVKYLL
assigned.category: no (0)
//
biosequence: RQLTSNVDV
assigned.category: yes (1)
//
biosequence: MIGNYFSGVL
assigned.category: no (0)
//
biosequence: CVDHPFIYV
assigned.category: yes (1)
//
biosequence: NLFDIPLLT
assigned.category: no (0)
//
biosequence: STSPTRTWKV
assigned.category: no (0)
//
biosequence: TQVKELGIA
assigned.category: yes (1)
//
biosequence: TIDAINKCV
assigned.category: no (0)
//
biosequence: MIIGEPIIVA
assigned.category: yes (1)
//
biosequence: RVFKKIMSI
assigned.category: yes (1)
//
biosequence: ETDDDGNYPL
assigned.category: no (0)
//
biosequence: NVDIIDLLL
assigned.category: yes (1)
//
biosequence: GLRQQLEDI
assigned.category: no (0)
//
biosequence: MIYDLNAVTT
assigned.category: no (0)
//
biosequence: NINIEVKLFI
assigned.category: no (0)
//
biosequence: GIYNCCESNI
assigned.category: yes (1)
